assay system: PfCRT^Ecu1110 (Plasmodium falciparum, UniProt Q9N623, A220S/I356L/K76T/N326D)
Sequence (Q9N623 whole entry A220S/I356L/K76T/N326D): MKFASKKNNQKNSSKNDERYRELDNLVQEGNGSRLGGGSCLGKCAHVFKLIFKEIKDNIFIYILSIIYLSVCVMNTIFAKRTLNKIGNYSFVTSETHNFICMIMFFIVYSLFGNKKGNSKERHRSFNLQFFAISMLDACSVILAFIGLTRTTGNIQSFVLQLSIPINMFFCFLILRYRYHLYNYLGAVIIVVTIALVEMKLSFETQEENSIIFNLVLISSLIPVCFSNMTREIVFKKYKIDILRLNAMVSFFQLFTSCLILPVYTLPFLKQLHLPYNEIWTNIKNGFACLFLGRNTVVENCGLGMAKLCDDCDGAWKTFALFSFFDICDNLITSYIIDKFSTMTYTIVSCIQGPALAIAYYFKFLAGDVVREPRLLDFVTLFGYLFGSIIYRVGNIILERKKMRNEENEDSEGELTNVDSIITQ
test summary: [3H]CQ uptake into Xenopus oocytes, cis-inhibition by unlabelled solute
Assay type: cell-based
assay setup: read-out: Uptake of [3H]CQ (% PfCRTDd2 control), cis-inhibition, PfCRTEcu1110; SEM
Measured inhibition at 500 µM accompanies every entry in the list below.
quantity measured: inhibition at 500 µM (%)

INSERT INTO measurements (structure_string, measured_result) VALUES
  ('CC(C)C[C@H](N)C(=O)O', 33),
  ('C[C@H](N)C(=O)O', 31),
  ('NC(=O)CC[C@H](N)C(=O)O', 32),
  ('N[C@@H](CCC(=O)O)C(=O)O', 31),
  ('NCCCC[C@H](N)C(=O)O', 31),
  ('N[C@@H](Cc1c[nH]cn1)C(=O)O', 32);

###

Measured activity at 5000 µM accompanies every entry in the list below.
assay system: PfCRT^Ecu1110 (Plasmodium falciparum, UniProt Q9N623, A220S/I356L/K76T/N326D)
test summary: cell-based
Format: cell-based
assay setup: […], read-out: Uptake of [3H]CQ (% PfCRTDd2 control), trans-stimulation, PfCRTEcu1110, total [3H]CQ transport; [test solute]i = 5 mM (intracellular); mean ± SEM; SEM
quantity measured: activity at 5000 µM (%)

INSERT INTO results (compound, units_symbol, measured_result) VALUES
  ('N=C(N)NCCC[C@H](N)C(=O)O [L-arginine]', '%', 36),
  ('NCCCC[C@H](N)C(=O)O [L-lysine]', '%', 35),
  ('N[C@@H](CO)C(=O)O [L-serine]', '%', 36),
  ('N[C@@H](Cc1ccc(O)cc1)C(=O)O [L-tyrosine]', '%', 35),
  ('C[C@H](N)C(=O)O [L-alanine]', '%', 35),
  ('N[C@@H](Cc1c[nH]c2ccccc12)C(=O)O [L-tryptophan]', '%', 35),
  ('N[C@@H](CS)C(=O)O [L-cysteine]', '%', 35),
  ('N[C@@H](Cc1ccccc1)C(=O)O [L-phenylalanine]', '%', 35),
  ('N[C@@H](Cc1c[nH]cn1)C(=O)O [L-histidine]', '%', 36),
  ('CC(C)C[C@H](N)C(=O)O [L-leucine]', '%', 35),
  ('CC[C@H](C)[C@H](N)C(=O)O [L-isoleucine]', '%', 35),
  ('C[C@@H](O)[C@H](N)C(=O)O [L-threonine]', '%', 36);

###

assay system: PfCRT^Dd2 (Plasmodium falciparum, UniProt Q9N623, A220S/I356T/K76T/M74I/N326S/N75E/Q271E/R371I)
Sequence (Q9N623 whole entry A220S/I356T/K76T/M74I/N326S/N75E/Q271E/R371I): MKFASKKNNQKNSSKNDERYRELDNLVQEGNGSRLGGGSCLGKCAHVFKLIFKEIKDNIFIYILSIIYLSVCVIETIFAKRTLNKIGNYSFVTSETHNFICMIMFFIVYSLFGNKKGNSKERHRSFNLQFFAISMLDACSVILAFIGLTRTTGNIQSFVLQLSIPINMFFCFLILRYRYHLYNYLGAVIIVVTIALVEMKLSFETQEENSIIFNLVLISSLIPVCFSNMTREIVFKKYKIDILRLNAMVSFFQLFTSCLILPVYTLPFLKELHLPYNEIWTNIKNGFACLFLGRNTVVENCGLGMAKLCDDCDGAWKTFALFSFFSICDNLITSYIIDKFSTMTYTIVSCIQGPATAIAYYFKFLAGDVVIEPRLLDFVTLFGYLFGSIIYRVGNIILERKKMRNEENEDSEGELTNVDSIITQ
test summary: [3H]CQ uptake into Xenopus oocytes, cis-inhibition by unlabelled solute
Format: cell-based
assay setup: read-out: Uptake of [3H]CQ (% PfCRTDd2 control), cis-inhibition, PfCRTDd2; SEM
Measured inhibition at 2000 µM accompanies every entry in the list below.
quantity measured: inhibition at 2000 µM (%)

INSERT INTO results (structure_string, measured_result) VALUES
  ('C[C@@H](O)[C@H](N)C(=O)O', 94),
  ('N[C@@H](Cc1ccc(O)cc1)C(=O)O', 99),
  ('N[C@@H](Cc1c[nH]cn1)C(=O)O', 100),
  ('NCCCC[C@H](N)C(=O)O', 97);
